PROCEDURE_TEXT: Inhibition of CDK1/cyclinB
Design: species or system Homo sapiens
pKi: −log10 of the molar value.
MEASURED_QUANTITY: pKi

These solved cases illustrate the format of a correct answer.
| SMILES_TEXT | RECORDED_VALUE |
| --- | --- |
| O=C1N=C(NCCc2ccccc2F)S/C1=C\c1ccc2ncccc2c1 | 6.92 |
| O=C1N=C(NCCCc2ccccc2)S/C1=C\c1ccc2ncccc2c1 | 6.62 |
| O=C1N=C(N[C@H](CO)Cc2ccccc2)S/C1=C\c1ccc2ncccc2c1 | 5.70 |
| O=C1N=C(NCCc2ccccn2)S/C1=C\c1ccc2ncccc2c1 | 6.55 |
| O=C1N=C(NCc2ccccc2Br)S/C1=C\c1ccc2ncccc2c1 | 7.42 |

P. O=C1N=C(N[C@H](CO)c2ccccc2)S/C1=C\c1ccc2ncccc2c1
Q. NC1=NC(=O)/C(=C/c2ccc3ncccc3c2)S1
(Q) For the pair P and Q , which member has the lower pKi number? Identify your pick by its label.
(A) P
(P: 6.24, Q: 7.10)

I. O=C1N=C(NCCc2ccccc2)S/C1=C\c1ccc2ncccc2c1
II. O=C1N=C(N[C@@H]2C[C@H]2c2ccccc2)S/C1=C\c1ccc2ncccc2c1
(Q) For the pair I and II , which member has the lower pKi number? Identify your pick by its label.
(A) I

P. CCOc1ccccc1CCNC1=NC(=O)/C(=C/c2ccc3ncccc3c2)S1
Q. O=C1N=C(NCCc2cccs2)S/C1=C\c1ccc2ncccc2c1
(Q) Between the two listed entries P and Q , which has its pKi at the higher number? Identify your pick by its label.
(A) Q

Just for reference, ChEMBL document CHEMBL1147195 is where these values come from.
